Overview of reported melting point across a group of compounds:

Below, each entry is followed by its recorded melting point result.
# compound, reportedResult
rows = [
    ("N#Cc1ccc(-c2ccc(C(CCC(=O)O)=NO)cc2)cc1 [Example 14]", "157 to 159 °C"),
    ("O=C(O)CCC(=NO)c1ccc(-c2ccc(C(F)(F)F)cc2)cc1 [Example 16]", "134 to 136 °C"),
    ("CN(C)N=C(CCC(=O)O)c1ccc(-c2ccc(Cl)cc2)cc1 [Example 3]", "158 to 160 °C"),
    ("COc1ccc(-c2ccc(C(CCC(=O)O)=NO)cc2)cc1 [Example 13]", "157 to 160 °C"),
]

Task item: Consider the compound O=C(O)CCC(=NO)c1ccc(-c2ccc(Cl)cc2F)cc1 [Example 10] and give its measured melting point.
Reply: 147.5 to 149.5 °C

Task item: Need melting point of CSc1ccc(-c2ccc(C(CCC(=O)O)=NO)cc2)cc1 [Example 17] , thanks.
Reply: 162 to 164 °C

Task item: I am curious: what melting point value has been reported for O=C(O)CCC(=NO)c1ccc(-c2ccccc2F)cc1 [Example 11] ?
Reply: 150 to 151.5 °C

Task item: May I ask what melting point has been recorded for O=C(O)CCC(=NO)c1ccc(-c2cccc(F)c2)cc1 [Example 15] ?
Reply: 155 to 157 °C

====

measurementLabel: melting point

Below, each entry is followed by its recorded melting point result.
# molecule, melting point
data = [
    ("O=C1CCC(c2ccc(-c3ccc(Cl)cc3)cc2)=NO1 [Example 18]", "190 to 192 °C"),
    ("CON=C(CCC(=O)O)c1ccc(-c2ccc(Cl)cc2)cc1 [Example 9]", "183 to 186 °C"),
    ("CON=C(CCC(=O)[O-])c1ccc(-c2ccc(Cl)cc2)cc1.[Na+] [Example 8]", "234 to 238 °C"),
]

Task item: Entry Cc1ccc(-c2ccc(C(CCC(=O)O)=NO)cc2)cc1 [Example 12] has what melting point?
Reply: 176.5 to 177.5 °C

Task item: Param item = O=C(O)CCC(=NO)c1ccc(-c2ccc(Br)cc2)cc1 [Example 2] ; retrieve measured melting point.
Reply: 175 to 176 °C
